Test system: Target 1
Test: qPCR assay, Target 1 splicing potency (poison exons 7b and 7c inclusion)
Format: cell-based
Settings: WT transcript
Experimental: A-673 or SK-N-MC cells were treated with different concentrations of SMSM compounds or DMSO for 24 hours. […] After cDNA synthesis, samples were analyzed by qPCR using target transcript specific Taqman primers/probes (FIGS. 7, 19, 20, and 29). Absolute copy numbers were determined using standard curves from G-block DNA fragments (FIGS. 8, 9, and 21). Relative gene expression was determined by comparing the gene expression in the presence of an SMSM and DMSO (FIGS. 10-16 and 22-28).
Dear colleague, classification is by IC50, with ranges listed here: A = under 100 nM, B = from 100 nM up to 200 nM, C = 200 nM and over

smiles_structure=COc1cc(-c2ccc(-c3ccc(N(C)[C@H]4C[C@]5(C)CC[C@](C)(C4)N5)nn3)c(O)c2)ncn1 qualitative_label=C
smiles_structure=CNC(=O)/C=C/c1cc(O)c(-c2ccc(N(C3CC3)[C@H]3C[C@]4(C)CC[C@](C)(C3)N4)nn2)cc1F qualitative_label=C
smiles_structure=CN(c1ccc(-c2cc(F)c(-c3ccn(C)c(=O)c3)cc2O)nn1)[C@H]1C[C@]2(C)CCC[C@](C)(C1)N2 qualitative_label=B
smiles_structure=COc1cc(-c2ccc(-c3ccc(N(C)[C@H]4C[C@]5(C)CC[C@](C)(C4)N5)nn3)c(O)c2)cnn1 qualitative_label=B
smiles_structure=CNC(=O)/C=C/c1cc(O)c(-c2ccc(N(C3CC3)[C@H]3C[C@]4(C)CCC[C@](C)(C3)N4)nn2)cc1F qualitative_label=B
smiles_structure=CN(c1ccc(-c2cc(F)c(-c3cc(=O)n(C)cn3)cc2O)nn1)[C@H]1C[C@]2(C)CC[C@](C)(C1)N2 qualitative_label=C
smiles_structure=CN(c1ccc(-c2cc(F)c(-c3cn[nH]c3)cc2O)nn1)[C@@H]1C[C@H]2CCC[C@@H](C1)N2 qualitative_label=A
smiles_structure=CN(c1ccc(-c2ccc(-c3cnn(CF)c3)cc2O)nn1)[C@H]1C[C@]2(C)CC[C@](C)(C1)N2 qualitative_label=C
smiles_structure=CN(c1ccc(-c2cc(F)c(-c3ccn(CF)c(=O)c3)cc2O)nn1)[C@H]1C[C@]2(C)CCC[C@](C)(C1)N2 qualitative_label=A
smiles_structure=CNC(=O)c1ccc2cc(-c3ccc(N(C)[C@H]4C[C@]5(C)CCC[C@](C)(C4)N5)nn3)c(O)cc2n1 qualitative_label=A
smiles_structure=CNC(=O)/C=C/c1cc(O)c(-c2ccc(N(C)[C@@H]3C[C@H]4CCC[C@@H](C3)N4)nn2)cc1F qualitative_label=B
smiles_structure=COc1cc(-c2ccc(-c3ccc(N(C)[C@H]4C[C@]5(C)CCC[C@](C)(C4)N5)nn3)c(O)c2)cnn1 qualitative_label=B
